Molecular target: T1, cyno FcRn/b2M (cyno, UniProt Q8SPV9 24-297; Q8SPW0 21-119, biotinylated)
T1 construct: bought recombinant biotinylated protein (Immunitrack ITF05 or ACRO FCM-C82W5); also called cFcRn; cFcRn/cb2M
T1 sequence (Q8SPV9 24-297 limits assumed, chain 1 of 2): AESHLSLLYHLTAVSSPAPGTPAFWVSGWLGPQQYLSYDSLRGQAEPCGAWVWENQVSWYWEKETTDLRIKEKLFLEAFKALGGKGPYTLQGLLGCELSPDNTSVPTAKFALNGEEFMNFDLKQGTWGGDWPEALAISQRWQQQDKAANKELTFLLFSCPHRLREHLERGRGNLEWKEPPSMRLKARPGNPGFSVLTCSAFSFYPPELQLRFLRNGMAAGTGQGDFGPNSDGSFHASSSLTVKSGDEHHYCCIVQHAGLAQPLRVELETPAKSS
T1 sequence (Q8SPW0 21-119 limits assumed, chain 2 of 2): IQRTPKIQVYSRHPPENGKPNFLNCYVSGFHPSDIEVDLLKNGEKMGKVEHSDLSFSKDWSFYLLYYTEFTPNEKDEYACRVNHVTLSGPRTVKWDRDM
Assay: SPR off-rate; pH 7.4 vs pH 6.0;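 note: surface plasmon resonance with diluted periplasmic extracts flowed over ligand surfaces, 120 s association and 600–3600 s dissociation at 25 °C, running buffer containing 150 mM NaCl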
observed.property: kd ratio pH 7.4/6.0
Answer with a bare number; do not write a unit.

T0263018B11 F27M (VHH, name in Kabat numbering, FLAG3-His6 tagged) VHH: EVQLVESGGGVVQPGGSLRLSCAASGMTFSSYAMYWVRQAPGKGLEWVSAISSGGGSTDYADSVKGRFTISRDNSKNTLYLQMNSLRPEDTALYYCAADTLYTSLTWYSYWGQGTLVTVSS = 69

Ask | Using known records, supply kd ratio pH 7.4/6.0 for T0263018B11 G26E (VHH, name in Kabat numbering, FLAG3-His6 tagged) VHH: EVQLVESGGGVVQPGGSLRLSCAASEFTFSSYAMYWVRQAPGKGLEWVSAISSGGGSTDYADSVKGRFTISRDNSKNTLYLQMNSLRPEDTALYYCAADTLYTSLTWYSYWGQGTLVTVSS
Reply | 62

Ask | Using known records, supply kd ratio pH 7.4/6.0 for T0263018B11 T96F (VHH, name in Kabat numbering, FLAG3-His6 tagged) VHH: EVQLVESGGGVVQPGGSLRLSCAASGFTFSSYAMYWVRQAPGKGLEWVSAISSGGGSTDYADSVKGRFTISRDNSKNTLYLQMNSLRPEDTALYYCAADFLYTSLTWYSYWGQGTLVTVSS
Reply | 83
